assayNotes: Absorption and fluorescence spectra, extinction coefficient, fluorescence quantum yield
Assay type: physicochemical
testParameters: Table 15, OcOH

molecule | Observed emission λmax
C[n+]1ccc(/C=C/C2=C([O-])c3ccccc3S2(=O)=O)cc1 | 536 nm
Cn1c([O-])c(/C=C/C=C/c2cc[n+]3c(c2)C(C)(C)c2ccccc2-3)c(=O)n(C)c1=O | 656 nm
CCN1C(=O)\C(=C/C=C/C=C2/N(C)c3ccccc3C2(C)C)C(O)N(CC)C1=S (stereo not drawn) [I-TBA, reference compound] | 609 nm

---

assayNotes: Absorption and fluorescence spectra, extinction coefficient, fluorescence quantum yield
Assay type: physicochemical
testParameters: Butanol (BuOH)
Method: Absorption spectra were recorded on a Hewlett-Packard 8453 diode array UV-Vis spectrophotometer (Agilent Technologies, Inc., Santa Clara, Calif.), and fluorescence measurements were taken on a SPEX® Fluorolog 2 spectrofluorometer (HORIBA Jobin Yvon, Inc., Edison, N.J.). Melting points are not corrected. NMR spectra were obtained on a Varian Mercury 300 MHz (Varian, Inc., Palo Alto, Calif.) or on a Bruker 300 MHz DRX 300 spectrometer (Bruker Biospin Corp., Billerica, Mass.). […]
Reported Extinction coefficient ε values are given for each entry in this list.
quantityKind: Extinction coefficient ε

compound | quantityKind | recordedMeasurement
CCN1/C(=C/C=C/C=C2/C(=O)c3ccccc3S2(=O)=O)Sc2ccccc21 [S-SO, reference compound] | Extinction coefficient ε | 163000
CN1/C(=C(C#N)/C=C/C=C2/C(=O)c3ccccc3S2(=O)=O)C(C)(C)c2ccccc21 | Extinction coefficient ε | 56000
CCn1c(O)c(/C=C/C=C(\C#N)c2cc[n+]3c(c2)C(C)(C)c2ccccc2-3)c(=O)n(CC)c1=S | Extinction coefficient ε | 188000
CC1(C)c2ccccc2-[n+]2ccc(/C=C/C=C/C3=C(O)c4ccccc4S3(=O)=O)cc21 | Extinction coefficient ε | 118000
Cn1c(O)c(/C=C/C=C/c2cc[n+]3c(c2)C(C)(C)c2ccccc2-3)c(=O)n(C)c1=O | Extinction coefficient ε | 154000
Cn1c(O)c(/C=C/C=C(\C#N)c2cc[n+]3c(c2)C(C)(C)c2ccccc2-3)c(=O)n(C)c1=O | Extinction coefficient ε | 189000
CC1(C)c2ccccc2-[n+]2ccc(/C(C#N)=C/C=C/C3=C(O)c4ccccc4S3(=O)=O)cc21 | Extinction coefficient ε | 168000

---

Reported Observed emission (Φ) values follow for various compounds
assayNotes: Absorption and fluorescence spectra, extinction coefficient, fluorescence quantum yield
Format: physicochemical
testParameters: Table 15, DMF

compound | Observed emission (Φ)
C[n+]1ccc(/C=C/C=C/C2=C([O-])c3ccccc3S2(=O)=O)cc1 [P-SO(4)] | 0.10
CN1/C(=C/C=C/C=C2/C(=O)c3ccccc3S2(=O)=O)C(C)(C)c2ccccc21 [I-SO, reference compound] | 0.97
Cn1c([O-])c(/C=C/C=C/c2cc[n+]3c(c2)C(C)(C)c2ccccc2-3)c(=O)n(C)c1=O [AI-BA] | 0.26
CCN1C(=O)\C(=C/C=C/C=C2/N(C)c3ccccc3C2(C)C)C(O)N(CC)C1=S (stereo not drawn) [I-TBA, reference compound] | 0.94
C[n+]1ccc(/C=C/C2=C([O-])c3ccccc3S2(=O)=O)cc1 [P-SO(2)] | 0.025
CC1(C)c2ccccc2-[n+]2ccc(/C=C/C3=C([O-])c4ccccc4S3(=O)=O)cc21 [AI-SO(2)] | 0.16

---

assayNotes: Absorption and fluorescence spectra, extinction coefficient, fluorescence quantum yield
Type: physicochemical
testParameters: Table 15, DMSO
Recorded Observed emission λmax by entry

molecule | unitSymbol | Observed emission λmax
Cn1c([O-])c(/C=C/C=C/c2cc[n+]3c(c2)C(C)(C)c2ccccc2-3)c(=O)n(C)c1=O [AI-BA] | nm | 657
CC1(C)c2ccccc2-[n+]2ccc(/C=C/C3=C([O-])c4ccccc4S3(=O)=O)cc21 [AI-SO(2)] | nm | 567
C[n+]1ccc(/C=C/C=C/C2=C([O-])c3ccccc3S2(=O)=O)cc1 [P-SO(4)] | nm | 636
C[n+]1ccc(/C=C/C2=C([O-])c3ccccc3S2(=O)=O)cc1 [P-SO(2)] | nm | 535
CC1(C)c2ccccc2-[n+]2ccc(/C=C/C=C/C3=C(O)c4ccccc4S3(=O)=O)cc21 [AI-SO] | nm | 673

---

assayNotes: Absorption and fluorescence spectra, extinction coefficient, fluorescence quantum yield
Type: physicochemical
testParameters: Table 10, EtOH

smilesNotation | Observed absorption λmax / nm
CC1(C)c2ccccc2-[n+]2ccc(/C=C/C=C/C3=C(O)c4ccccc4S3(=O)=O)cc21 | 636
C[n+]1ccc(/C=C/C=C/C2=C([O-])c3ccccc3S2(=O)=O)cc1 | 557
CCn1c([O-])c(/C=C/C=C/c2cc[n+]3c(c2)C(C)(C)c2ccccc2-3)c(=O)n(CC)c1=S | 603
CC1(C)c2ccccc2-[n+]2ccc(/C=C/C3=C([O-])c4ccccc4S3(=O)=O)cc21 | 549
Cn1c([O-])c(/C=C/C=C/c2cc[n+]3c(c2)C(C)(C)c2ccccc2-3)c(=O)n(C)c1=O | 604
C[n+]1ccc(/C=C/C2=C([O-])c3ccccc3S2(=O)=O)cc1 | 514

---

assayNotes: Absorption and fluorescence spectra, extinction coefficient, fluorescence quantum yield
Format: physicochemical
testParameters: Methanol (MeOH)
quantityKind: Absorbance λmax (nm)

compound | unitSymbol | recordedMeasurement
CC1(C)c2ccccc2-[n+]2ccc(/C=C/C=C/C3=C(O)c4ccccc4S3(=O)=O)cc21 | nm | 610
CN1/C(=C/C=C/C=C2/C(=O)c3ccccc3S2(=O)=O)C(C)(C)c2ccccc21 [I-SO, reference compound] | nm | 586
Cn1c(O)c(/C=C/C=C/c2cc[n+]3c(c2)C(C)(C)c2ccccc2-3)c(=O)n(C)c1=O | nm | 585
CCN1/C(=C/C=C/C=C2/C(=O)c3ccccc3S2(=O)=O)Sc2ccccc21 [S-SO, reference compound] | nm | 598
CN1/C(=C(C#N)/C=C/C=C2/C(=O)c3ccccc3S2(=O)=O)C(C)(C)c2ccccc21 | nm | 528
Cn1c(O)c(/C=C/C=C(\C#N)c2cc[n+]3c(c2)C(C)(C)c2ccccc2-3)c(=O)n(C)c1=O | nm | 589

---

The reader will find reported Absorption Exp wavelength values listed item by item below.
assayNotes: Absorption and fluorescence spectra, extinction coefficient, fluorescence quantum yield
Assay type: physicochemical
testParameters: Table 12, MeOH
Experimental: Absorption spectra were recorded on a Hewlett-Packard 8453 diode array UV-Vis spectrophotometer (Agilent Technologies, Inc., Santa Clara, Calif.), and fluorescence measurements were taken on a SPEX® Fluorolog 2 spectrofluorometer (HORIBA Jobin Yvon, Inc., Edison, N.J.). Melting points are not corrected. NMR spectra were obtained on a Varian Mercury 300 MHz (Varian, Inc., Palo Alto, Calif.) or on a Bruker 300 MHz DRX 300 spectrometer (Bruker Biospin Corp., Billerica, Mass.). […]

molecule | Absorption Exp wavelength (nm)
Cn1c([O-])c(/C=C/C=C/c2cc[n+]3c(c2)C(C)(C)c2ccccc2-3)c(=O)n(C)c1=O [AI-BA] | 585
CCn1c([O-])c(/C=C/C=C/c2cc[n+]3c(c2)C(C)(C)c2ccccc2-3)c(=O)n(CC)c1=S [AI-TBA] | 576
CN1/C(=C/C=C/C=C2/C(=O)c3ccccc3S2(=O)=O)C(C)(C)c2ccccc21 [I-SO, reference compound] | 586
CCN1C(=O)\C(=C/C=C/C=C2/N(C)c3ccccc3C2(C)C)C(O)N(CC)C1=S (centres unmarked) [I-TBA, reference compound] | 583
CC1(C)c2ccccc2-[n+]2ccc(/C=C/C=C/C3=C(O)c4ccccc4S3(=O)=O)cc21 [AI-SO] | 585

---

assayNotes: Absorption and fluorescence spectra, extinction coefficient, fluorescence quantum yield
Assay type: physicochemical
testParameters: Table 15, EtOH
As shown below, each of these molecules has a reported Observed emission (Φ) value.

smilesNotation | Observed emission (Φ)
Cn1c([O-])c(/C=C/C=C/c2cc[n+]3c(c2)C(C)(C)c2ccccc2-3)c(=O)n(C)c1=O | 0.19
CC1(C)c2ccccc2-[n+]2ccc(/C=C/C3=C([O-])c4ccccc4S3(=O)=O)cc21 | 0.09
C[n+]1ccc(/C=C/C2=C([O-])c3ccccc3S2(=O)=O)cc1 | 0.008
C[n+]1ccc(/C=C/C=C/C2=C([O-])c3ccccc3S2(=O)=O)cc1 | 0.029
CC1(C)c2ccccc2-[n+]2ccc(/C=C/C=C/C3=C(O)c4ccccc4S3(=O)=O)cc21 | 0.82

---

assayNotes: Absorption and fluorescence spectra, extinction coefficient, fluorescence quantum yield
Type: physicochemical
testParameters: Table 10, i-PrOH
quantityKind: Observed absorption (ε)

smilesNotation | recordedMeasurement
CC1(C)c2ccccc2-[n+]2ccc(/C=C/C3=C([O-])c4ccccc4S3(=O)=O)cc21 | (132000)
Cn1c([O-])c(/C=C/C=C/c2cc[n+]3c(c2)C(C)(C)c2ccccc2-3)c(=O)n(C)c1=O | (132000)
